Subject Of Test: Artificial Cell Surface (ACS)
Experiment Description: ACS column adsorption of trypsin-digested dHSA, MALDI-TOF MS
Ends that are not written are not given here.
We use 40% as the dividing line for Percent Absorbed: on or above the line is true (1), below is false (0).

Is the recorded value of Percent Absorbed equal to or greater than 40% for this binder? KVPQVSTPTLVEVSR [… (trypsin-generated albumin fragment, SEQ ID NO: 195)]
true (1)

Is the recorded value of Percent Absorbed equal to or greater than 40% for this binder? AVMDDFAAFVEK [… (trypsin-generated albumin fragment, SEQ ID NO: 208)]
false (0)

Is the recorded value of Percent Absorbed equal to or greater than 40% for this binder? VPQVSTPTLVEVSR [… (trypsin-generated albumin fragment, SEQ ID NO: 197)]
true (1)

Is the recorded value of Percent Absorbed equal to or greater than 40% for this binder? YICENQDSISSK [… (trypsin-generated albumin fragment, SEQ ID NO: 214)]
false (0)

Is the recorded value of Percent Absorbed equal to or greater than 40% for this binder? LCTVATLR [LCTVATLR (trypsin-generated albumin fragment, SEQ ID NO: 202)]
false (0)

Is the recorded value of Percent Absorbed equal to or greater than 40% for this binder? QEPERNECFLQHK (not fully specified) [… (trypsin-generated albumin fragment, SEQ ID NO: 207)]
false (0)

Is the recorded value of Percent Absorbed equal to or greater than 40% for this binder? AAFTECCQAADK [… (trypsin-generated albumin fragment, SEQ ID NO: 205)]
false (0)

Is the recorded value of Percent Absorbed equal to or greater than 40% for this binder? LKECCEKPLLEK [… (trypsin-generated albumin fragment, SEQ ID NO: 201)]
false (0)

Is the recorded value of Percent Absorbed equal to or greater than 40% for this binder? NECFLQHK [NECFLQHK (trypsin-generated albumin fragment, SEQ ID NO: 209)]
false (0)
